system: Bacteroides stercoris; experiment: growth AUC relative to DMSO control (median of replicates) (fraction); higher = more growth (less inhibition), active = hit call of the paper; conditions: 20 µM; 24 h

>  <molecule>
CCc1cnc(C2=NC(C)(C(C)C)C(=O)N2)c(C(=O)O)c1 (centres undefined)

>  <growth AUC>
0.985

$$$$
>  <molecule>
CC1CCCCC1NC(=O)Nc1ccccc1 (mixture of isomers)

>  <growth AUC>
0.973

$$$$
>  <molecule>
C[C@@H](Oc1ccc(Oc2ncc(C(F)(F)F)cc2Cl)cc1)C(=O)O

>  <growth AUC>
1.02

$$$$
>  <molecule>
CC(C)[C@@H](Nc1ccc(C(F)(F)F)cc1Cl)C(=O)OC(C#N)c1cccc(Oc2ccccc2)c1 (some centres undefined)

>  <growth AUC>
1.01

$$$$
>  <molecule>
CN(C)C(CSS(=O)(=O)c1ccccc1)CSS(=O)(=O)c1ccccc1

>  <growth AUC>
1.01

$$$$
>  <molecule>
Oc1ccc(Cl)cc1

>  <growth AUC>
0.981

$$$$
>  <molecule>
CNC(=O)O/N=C/C(C)(C)S(C)(=O)=O

>  <growth AUC>
0.973

$$$$
>  <molecule>
O=S(=O)(Oc1ccc(Cl)cc1)c1ccc(Cl)cc1

>  <growth AUC>
0.973

$$$$
>  <molecule>
O=C(NC(=O)c1c(F)cccc1F)Nc1ccc(OC(F)(F)C(F)OC(F)(F)F)c(Cl)c1 (centres undefined)

>  <growth AUC>
0.982

$$$$
